CC50 at 42 h for assorted molecules
PROTOCOL DESCRIPTION: L929 cell toxicity assay ([3H]dT incorporation)
STATED CONDITIONS: mouse, l929 cells
ASSAY METRIC: CC50 at 42 h (ng/mL)

INSERT INTO assay_data (molecule, recorded_value) VALUES
  ('Nc1nc2c(ncn2COCCO)c(=O)[nH]1 [ACV, acycloguanosine]', 12.5),
  ('Nc1ccn([C@@H]2O[C@H](CO)[C@@H](O)[C@@H]2O)c(=O)n1 [AraC, cytosine-beta-D-arabinoside]', 0.3);
